Target: human plasma-derived factor VII (HP FVII) (Homo sapiens, UniProt P08709 P08709:61-466)
Sequence (P08709 61-466, one chain of several): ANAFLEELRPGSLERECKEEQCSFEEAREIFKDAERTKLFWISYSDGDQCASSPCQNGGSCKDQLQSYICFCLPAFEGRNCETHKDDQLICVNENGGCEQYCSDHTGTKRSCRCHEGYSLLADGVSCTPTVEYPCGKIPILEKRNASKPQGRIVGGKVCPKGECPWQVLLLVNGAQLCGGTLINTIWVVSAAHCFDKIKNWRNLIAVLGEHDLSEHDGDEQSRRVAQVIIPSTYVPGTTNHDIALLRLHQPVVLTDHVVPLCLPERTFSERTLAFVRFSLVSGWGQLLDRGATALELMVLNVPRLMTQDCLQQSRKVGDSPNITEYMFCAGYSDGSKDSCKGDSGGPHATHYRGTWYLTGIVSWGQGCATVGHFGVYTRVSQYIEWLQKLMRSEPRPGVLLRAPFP
Test: SPR; Hepes 20 mM pH 8, NaCl 50 mM, CaCl2 2 mM, BSA 0.01%; aptamer immobilized via 3'-biotin on SA chip; allosteric binding model; FVII 50-400 nM
Settings: tags: plasma-derived, purity 99%; label: 3'-biotin
Readout: Kd (nM)
A number alone suffices; assume nM.

[in] Item under review: anti-human FVII aptamer (SEQ no 1) (ssRNA, 2'-OMe at bases shown in bold in the patent (positions not recoverable from text); 3'-biotin) RNA: GGGAGAGAGGAAGAGGGAUGGGAGCCUAUGUAACAGAUGCAGAUCCCUAGUCGUCCCAACACCAUAAC . Reported Kd?
[out] 1400
